measurementDescription: Selectivity index, ratio of IC50 for human MCF10A cells assessed as reduction in cell growth measured after 48 hrs by CCK8 assay to IC50 for human MCF7 cells assessed as reduction in cell growth measured after 48 hrs by CCK8
Type: toxicity
conditionDetails: MCF10A cells versus MCF7 cells, read-out: Ratio IC50
measurementKind: selectivity ratio at 48 h

entrySmiles | measurementKind | testValue
O=C(C[C@@H](CC1CCCC1)C(=O)N1CC2(CC2)C[C@H]1c1nc(-c2ccc(F)cc2C(F)(F)F)no1)NO | selectivity ratio at 48 h | 9

###

Test system: MCF-10A
measurementDescription: Cytotoxicity against human MCF10A cells assessed as reduction in cell growth measured after 48 hrs by CCK8 assay
Assay type: cell-based
measurementKind: IC50 (µM)

entrySmiles | targetOrTestSystem | measurementKind | testValue
O=C(C[C@@H](CC1CCCC1)C(=O)N1CC2(CC2)C[C@H]1c1nc(-c2ccc(C(F)(F)F)cc2)no1)NO | MCF-10A | IC50 | 22.4
O=C(C[C@@H](CC1CCCC1)C(=O)N1CC2(CC2)C[C@H]1c1nc(-c2ccc(C(F)(F)F)cc2F)no1)NO | MCF-10A | IC50 | 29.1
O=C(C[C@@H](CC1CCCC1)C(=O)N1CC2(CC2)C[C@H]1c1nc(-c2ccc(F)cc2C(F)(F)F)no1)NO | MCF-10A | IC50 | 18.1
O=C(C[C@@H](CC1CCCC1)C(=O)N1CC2(CC2)C[C@H]1c1nc(-c2ccc(Br)cc2)no1)NO | MCF-10A | IC50 | 21.7
CCc1ccc(-c2noc([C@@H]3CC4(CC4)CN3C(=O)[C@@H](CC(=O)NO)CC3CCCC3)n2)cc1 | MCF-10A | IC50 | 19.9
Cc1ccc(-c2noc([C@@H]3CC4(CC4)CN3C(=O)[C@@H](CC(=O)NO)CC3CCCC3)n2)cc1 | MCF-10A | IC50 | 29.8
O=C(C[C@@H](CC1CCCC1)C(=O)N1CC2(CC2)C[C@H]1c1nc(-c2ccccc2)no1)NO | MCF-10A | IC50 | 32.3
O=C(C[C@@H](CC1CCCC1)C(=O)N1CC2(CC2)C[C@H]1c1nc(-c2ccc(C(F)(F)F)cc2Cl)no1)NO | MCF-10A | IC50 | 28.4

###

measurementDescription: Selectivity index, ratio of IC50 for human MCF10A cells assessed as reduction in cell growth measured after 48 hrs by CCK8 assay to IC50 for human HL60 cells assessed as reduction in cell growth measured after 48 hrs by CCK8
Assay type: toxicity
conditionDetails: MCF10A cells versus HL60 cells, read-out: Ratio IC50

entrySmiles | selectivity ratio at 48 h
O=C(C[C@@H](CC1CCCC1)C(=O)N1CC2(CC2)C[C@H]1c1nc(-c2ccc(F)cc2C(F)(F)F)no1)NO | 9

###

Measured IC50 on Protein deacetylase HDAC6 (Homo sapiens, UniProt Q9UBN7) follows.
Sequence (Q9UBN7 whole entry): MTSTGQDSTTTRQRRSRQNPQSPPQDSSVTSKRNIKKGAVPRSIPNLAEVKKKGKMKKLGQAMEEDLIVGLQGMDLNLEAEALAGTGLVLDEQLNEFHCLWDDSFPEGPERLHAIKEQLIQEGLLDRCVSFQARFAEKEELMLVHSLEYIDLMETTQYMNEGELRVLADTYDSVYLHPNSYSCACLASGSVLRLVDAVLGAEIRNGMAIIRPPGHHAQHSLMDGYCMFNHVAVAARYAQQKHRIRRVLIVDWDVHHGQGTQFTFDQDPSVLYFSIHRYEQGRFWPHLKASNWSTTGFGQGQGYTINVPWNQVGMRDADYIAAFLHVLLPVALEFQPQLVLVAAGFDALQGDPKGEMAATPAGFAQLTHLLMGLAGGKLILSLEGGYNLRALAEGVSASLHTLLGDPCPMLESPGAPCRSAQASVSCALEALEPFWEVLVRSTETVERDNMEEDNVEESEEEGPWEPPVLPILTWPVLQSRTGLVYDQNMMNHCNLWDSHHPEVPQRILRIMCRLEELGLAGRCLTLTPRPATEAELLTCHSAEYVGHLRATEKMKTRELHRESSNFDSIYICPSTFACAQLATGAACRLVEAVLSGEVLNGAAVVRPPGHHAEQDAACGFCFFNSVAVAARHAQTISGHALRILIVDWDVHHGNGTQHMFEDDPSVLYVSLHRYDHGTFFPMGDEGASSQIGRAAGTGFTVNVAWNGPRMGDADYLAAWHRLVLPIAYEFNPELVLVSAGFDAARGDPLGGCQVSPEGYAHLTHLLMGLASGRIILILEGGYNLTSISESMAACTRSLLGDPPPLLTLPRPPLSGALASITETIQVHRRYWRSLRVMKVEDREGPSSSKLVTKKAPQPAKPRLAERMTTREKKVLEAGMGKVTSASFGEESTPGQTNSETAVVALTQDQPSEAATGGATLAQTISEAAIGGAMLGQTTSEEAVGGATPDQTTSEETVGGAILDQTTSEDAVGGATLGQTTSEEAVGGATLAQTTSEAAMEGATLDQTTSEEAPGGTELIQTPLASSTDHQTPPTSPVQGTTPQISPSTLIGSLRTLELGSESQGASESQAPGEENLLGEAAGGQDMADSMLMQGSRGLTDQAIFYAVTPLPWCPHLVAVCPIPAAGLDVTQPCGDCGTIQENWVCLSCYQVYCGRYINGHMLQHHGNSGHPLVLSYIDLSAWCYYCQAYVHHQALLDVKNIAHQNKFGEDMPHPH
measurementKind: IC50

entrySmiles | measurementKind | testValue
O=C(C[C@@H](CC1CCCC1)C(=O)N1CC2(CC2)C[C@H]1c1nc(-c2ccc(F)cc2C(F)(F)F)no1)NO | IC50 | > 10 µM
O=C(C[C@@H](CC1CCCC1)C(=O)N1CC2(CC2)C[C@H]1c1nc(-c2ccccc2)no1)NO | IC50 | > 10 µM
